Test system: UCD52 (cells of a triple-negative basal-like breast cancer xenograft);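 note: PDX cells carrying CMV promoter-driven luciferase, viability read as total photon flux per second by IVIS imaging following D-luciferin, vehicle control 0.1% DMSO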
assay_summary: cell viability (% of vehicle); higher = less cytotoxic
conditions: 10 µM; 72 h
Where a name gives a salt, the structure may show the parent alone.
Note to self: cell viability under 80 means True, ties and anything higher get False.

compound	class_assignment
O=S(=O)([O-])Oc1ccc(C(c2ccc(OS(=O)(=O)[O-])cc2)c2ccccn2)cc1.[Na+].[Na+] [Sodium Picosulfate]	False
COC(=O)C1=C(C)NC(C)=C(C(=O)OCC(C)C)C1c1ccccc1[N+](=O)[O-] (stereo unspecified)	False
C[N+](C)(C)CC(O)CC(=O)[O-] [L-Carnitine inner salt]	False
CCC(C)n1ncn(-c2ccc(N3CCN(c4ccc(OCC5COC(Cn6cncn6)(c6ccc(Cl)cc6Cl)O5)cc4)CC3)cc2)c1=O (stereo unspecified)	True
CCC(NC(=O)C(C)NC)C(=O)N1CC(O)CC1Cc1c(-c2[nH]c3cc(F)ccc3c2CC2CC(O)CN2C(=O)C(CC)NC(=O)C(C)NC)[nH]c2cc(F)ccc12 (stereo unspecified)	False
CCOC(=O)C1=C(COCCN)NC(C)=C(C(=O)OC)C1c1ccccc1Cl (stereo unspecified)	True
Cc1cc(C2CCCCC2)n(O)c(=O)c1	False
Cn1cc[nH]c1=S	False

Hello, I'm reviewing records and need to know if cell viability of O=C1OC(C(O)CO)C([O-])=C1O.[Na+] (stereo unspecified) [Sodium ascorbate] is below 80. Could you check? True

Criterion: cell viability strictly below 80. Is it met by O=c1ncnc2[nH][nH]cc1-2 ? False

Please check: cell viability for O=C([O-])C(O)C(O)C(O)C(O)C(O)CO.O=C([O-])C(O)C(O)C(O)C(O)C(O)CO.[Ca+2] (stereo unspecified) [Calcium Gluceptate] , strictly under 80 or not? False

Quick check: cell viability of CNCC(O)c1ccc(O)c(O)c1.O=C(O)C(O)C(O)C(=O)O (stereo unspecified) [Epinephrine Bitartrate] under 80? False

Check if cell viability falls below 80 for CC(O)C1C(=O)N2C(C(=O)O)=C(SC3CNC(CNS(N)(=O)=O)C3)C(C)C12.O (stereo unspecified) [Doripenem Hydrate] . False

Determine if CCCOc1ccc(C(=O)OCCN(CC)CC)cc1N.Cl [Proparacaine HCl] shows cell viability strictly lower than 80. False

# check: cell viability < 80 for COc1cc2c(cc1OC)C(=O)C(CC1CCN(Cc3ccccc3)CC1)C2.Cl (stereo unspecified) [Donepezil HCl] True
